tested on: MCF-7; assay: relative IC50 (midpoint of fitted logistic curve, plateau may be below 50% inhibition; CellTiter-Glo viability); higher = less potent; conditions: 4-OH-tamoxifen in medium 0 µM; 72 h
# cutoff 900 nM applies to relative IC50; >= gives 1.0, < gives 0.0

## Task Does "O=C(Cc1ccc(-c2ccc(OCCN3CCOCC3)cc2)cn1)NCc1ccccc1" have a reported relative IC50 of at least 900 nM?
## Result 0.0

## Task Does "CC(C)(C#N)c1cc(Cn2cncn2)cc(C(C)(C)C#N)c1" have a reported relative IC50 of at least 900 nM?
## Result 1.0

## Task Does "CO[C@H]1C[C@@H]2CC[C@@H](C)[C@@](O)(O2)C(=O)C(=O)N2CCCC[C@H]2C(=O)O[C@H]([C@H](C)C[C@@H]2CC[C@@H](OC(=O)C(C)(CO)CO)[C@H](OC)C2)CC(=O)[C@H](C)/C=C(\C)[C@@H](O)[C@@H](OC)C(=O)[C@H](C)C[C@H](C)/C=C/C=C/C=C/1C" have a reported relative IC50 of at least 900 nM?
## Result 0.0

## Task Does "O=C(O)C(=O)O.[NH-][C@@H]1CCCC[C@H]1[NH-].[Pt+2]" have a reported relative IC50 of at least 900 nM?
## Result 1.0

## Task Does "c1ccc2c(CCNc3ccc(Nc4ccncc4)cc3)c[nH]c2c1" have a reported relative IC50 of at least 900 nM?
## Result 1.0

## Task Does "CCc1cncnc1N1CCN(Cc2nc3ccc(C(F)(F)F)cc3[nH]2)CC1" have a reported relative IC50 of at least 900 nM?
## Result 1.0

## Task Does "COc1ccccc1S(=O)(=O)Nc1ccc2c(c1)CN(C)C(=O)N2" have a reported relative IC50 of at least 900 nM?
## Result 1.0

## Task Does "C=CCNC1=C2C[C@@H](C)C[C@H](OC)[C@H](O)[C@@H](C)/C=C(\C)[C@H](OC(N)=O)[C@@H](OC)/C=C\C=C(/C)C(=O)NC(=CC1=O)C2=O" have a reported relative IC50 of at least 900 nM?
## Result 0.0

## Task Does "Nc1nc(F)nc2c1ncn2[C@@H]1O[C@H](CO)[C@@H](O)[C@@H]1O" have a reported relative IC50 of at least 900 nM?
## Result 1.0

## Task Does "Cn1cc(C2=C(c3cn(C4CCN(Cc5ccccn5)CC4)c4ccccc34)C(=O)NC2=O)c2ccccc21" have a reported relative IC50 of at least 900 nM?
## Result 1.0

## Task Does "CC(C)Cn1cnc2c(N)nc3ccccc3c21" have a reported relative IC50 of at least 900 nM?
## Result 1.0

## Task Does "C1CN1c1nc(N2CC2)nc(N2CC2)n1" have a reported relative IC50 of at least 900 nM?
## Result 1.0

## Task Does "CC(C)C[C@@H](C(=O)N[C@H](C(=O)OC1CCCC1)c1ccccc1)[C@H](O)C(=O)NO" have a reported relative IC50 of at least 900 nM?
## Result 1.0

## Task Does "CN1CC[C@H](c2c(O)cc(O)c3c(=O)cc(-c4ccccc4Cl)oc23)[C@H](O)C1" have a reported relative IC50 of at least 900 nM?
## Result 0.0

## Task Does "CN[C@@H]1C[C@H]2O[C@@](C)([C@@H]1OC)n1c3ccccc3c3c4c(c5c6ccccc6n2c5c31)C(=O)N[C@H]4O" have a reported relative IC50 of at least 900 nM?
## Result 0.0

## Task Does "Cc1cccc(-c2nn3c(c2-c2ccnc4ccc(C(N)=O)cc24)CCC3)n1" have a reported relative IC50 of at least 900 nM?
## Result 1.0
